System: LCLC-97TM1
measurement.protocol: relative viability (nuclei count vs DMSO), 5 days (fraction); higher = more cells survive
setup.conditions: first compound 0.08 µM
# if measured relative viability < 0.6: class 1  # else: class 0

Could you please tell me whether relative viability recorded for COc1nc(C)cnc1NS(=O)(=O)c1cccnc1-c1ccc(-c2nnco2)cc1 [Zibotentan] + N=C(N)NC(=N)NCCc1ccccc1 [Phenformin] (partner 250 µM) is less than 0.6? class 1

Could you please tell me whether relative viability recorded for COc1nc(C)cnc1NS(=O)(=O)c1cccnc1-c1ccc(-c2nnco2)cc1 [Zibotentan] + CCNC(=O)c1noc(-c2cc(C(C)C)c(O)cc2O)c1-c1ccc(CN2CCOCC2)cc1 [Luminespib] (partner 0.01 µM) is less than 0.6? class 0

Could you please tell me whether relative viability recorded for O=c1cc(-c2cccc3c2Sc2ccccc2S3)oc(N2CCOCC2)c1 + CC(=O)Nc1cccc(-n2c(=O)n(C3CC3)c(=O)c3c(Nc4ccc(I)cc4F)n(C)c(=O)c(C)c32)c1 [Trametinib] (partner 0.02 µM) is less than 0.6? class 1

Could you please tell me whether relative viability recorded for O=c1cc(-c2cccc3c2Sc2ccccc2S3)oc(N2CCOCC2)c1 + CC(C)C[C@H](NC(=O)[C@H](Cc1ccccc1)NC(=O)c1cnccn1)B(O)O [Bortezomib] (partner 0.002 µM) is less than 0.6? class 0

Could you please tell me whether relative viability recorded for COc1nc(C)cnc1NS(=O)(=O)c1cccnc1-c1ccc(-c2nnco2)cc1 [Zibotentan] + CS(=O)(=O)N1CCN(Cc2cc3nc(-c4cccc5[nH]ncc45)nc(N4CCOCC4)c3s2)CC1 [Pictilisib] (partner 1 µM) is less than 0.6? class 1

Could you please tell me whether relative viability recorded for COc1nc(C)cnc1NS(=O)(=O)c1cccnc1-c1ccc(-c2nnco2)cc1 [Zibotentan] + Cc1nc(NC(=O)N2CCC[C@H]2C(N)=O)sc1-c1ccnc(C(C)(C)C(F)(F)F)c1 [Alpelisib] (partner 2 µM) is less than 0.6? class 1

Could you please tell me whether relative viability recorded for COc1nc(C)cnc1NS(=O)(=O)c1cccnc1-c1ccc(-c2nnco2)cc1 [Zibotentan] + C[C@@H](Oc1cc(-c2cnn(C3CCNCC3)c2)cnc1N)c1c(Cl)ccc(F)c1Cl [Crizotinib] (partner 1 µM) is less than 0.6? class 1

Could you please tell me whether relative viability recorded for COc1nc(C)cnc1NS(=O)(=O)c1cccnc1-c1ccc(-c2nnco2)cc1 [Zibotentan] + C[C@]1(O)C[C@@H](c2nc(-c3ccc4ccc(-c5ccccc5)nc4c3)c3c(N)nccn32)C1 [Linsitinib] (partner 1 µM) is less than 0.6? class 1

Could you please tell me whether relative viability recorded for COc1nc(C)cnc1NS(=O)(=O)c1cccnc1-c1ccc(-c2nnco2)cc1 [Zibotentan] + Nc1ncn([C@H]2C[C@H](O)[C@@H](CO)O2)c(=O)n1 [Decitabine] (partner 2 µM) is less than 0.6? class 1

Could you please tell me whether relative viability recorded for COc1nc(C)cnc1NS(=O)(=O)c1cccnc1-c1ccc(-c2nnco2)cc1 [Zibotentan] + NC(=O)Nc1cc(-c2cccc(F)c2)sc1C(=O)N[C@H]1CCCNC1 [AZD7762] (partner 0.2 µM) is less than 0.6? class 1

Could you please tell me whether relative viability recorded for COc1nc(C)cnc1NS(=O)(=O)c1cccnc1-c1ccc(-c2nnco2)cc1 [Zibotentan] + Cc1nc(Nc2ncc(C(=O)Nc3c(C)cccc3Cl)s2)cc(N2CCN(CCO)CC2)n1 [Dasatinib] (partner 0.075 µM) is less than 0.6? class 0

Could you please tell me whether relative viability recorded for O=c1cc(-c2cccc3c2Sc2ccccc2S3)oc(N2CCOCC2)c1 + N=C(N)NC(=N)NCCc1ccccc1 [Phenformin] (partner 250 µM) is less than 0.6? class 1

Could you please tell me whether relative viability recorded for COc1nc(C)cnc1NS(=O)(=O)c1cccnc1-c1ccc(-c2nnco2)cc1 [Zibotentan] + COc1cc2c(Oc3ccc(NC(=O)C4(C(=O)Nc5ccc(F)cc5)CC4)cc3F)ccnc2cc1OCCCN1CCOCC1 [Foretinib] (partner 0.25 µM) is less than 0.6? class 0

Could you please tell me whether relative viability recorded for O=c1cc(-c2cccc3c2Sc2ccccc2S3)oc(N2CCOCC2)c1 + CC(=O)c1c(C)c2cnc(Nc3ccc(N4CCNCC4)cn3)nc2n(C2CCCC2)c1=O [Palbociclib] (partner 0.5 µM) is less than 0.6? class 1

Could you please tell me whether relative viability recorded for COc1nc(C)cnc1NS(=O)(=O)c1cccnc1-c1ccc(-c2nnco2)cc1 [Zibotentan] + CC(C)C[C@H](NC(=O)[C@H](Cc1ccccc1)NC(=O)c1cnccn1)B(O)O [Bortezomib] (partner 0.002 µM) is less than 0.6? class 0

Hey, just so you know, these numbers are from the supplement of paper PMC10307832.
